- Study System: T1, Ox-LDL binding to His9-hMSR1 (Homo sapiens, UniProt P21757)
- T1 construct: human MSR1 extracellular domain expressed with a N-terminal nonahistidine tag; purchased R&D Systems 2708-MS
- T1 sequence (P21757 77-451 limits assumed): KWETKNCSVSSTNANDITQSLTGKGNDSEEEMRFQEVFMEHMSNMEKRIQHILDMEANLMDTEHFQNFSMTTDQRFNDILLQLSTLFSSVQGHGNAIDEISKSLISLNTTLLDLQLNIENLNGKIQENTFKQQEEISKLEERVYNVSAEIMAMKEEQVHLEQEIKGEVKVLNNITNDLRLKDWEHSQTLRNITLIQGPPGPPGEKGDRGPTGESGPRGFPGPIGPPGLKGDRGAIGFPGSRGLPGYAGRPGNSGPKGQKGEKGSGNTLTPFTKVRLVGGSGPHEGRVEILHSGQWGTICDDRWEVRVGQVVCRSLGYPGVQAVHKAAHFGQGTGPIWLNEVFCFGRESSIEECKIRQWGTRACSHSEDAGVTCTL
- Protocol Details: Competition sandwich ELISA, Ox-LDL
- Reported Conditions: anti-MSR1 antibody 500 nM, Ox-LDL 10 nM
Recorded % Blocking of Ox-LDL binding to His9-hMSR1 values for a group of molecules are listed next.
// return numeric value only (unit: %, not printed)

# input # get_value(readout='% Blocking of Ox-LDL binding to His9-hMSR1', item= H1H21227N-N297D: "The 21227N antibody was also produced as a third version with a N297D mutation" (antibody, V domains shown) VH: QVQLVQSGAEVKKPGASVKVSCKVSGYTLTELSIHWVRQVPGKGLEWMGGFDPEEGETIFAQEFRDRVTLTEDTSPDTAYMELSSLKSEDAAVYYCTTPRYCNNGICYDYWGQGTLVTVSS VL: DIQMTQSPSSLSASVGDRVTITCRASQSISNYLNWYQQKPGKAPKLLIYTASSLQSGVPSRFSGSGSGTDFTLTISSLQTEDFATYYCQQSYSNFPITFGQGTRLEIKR )
# output 99

# input Repeat for the following molecule: H1H21231N: "Three anti-MSR1 antibodies ... (21227N, 21231N, 21234N) were produced with the original human Fcγ portion" (antibody, V domains shown) VH: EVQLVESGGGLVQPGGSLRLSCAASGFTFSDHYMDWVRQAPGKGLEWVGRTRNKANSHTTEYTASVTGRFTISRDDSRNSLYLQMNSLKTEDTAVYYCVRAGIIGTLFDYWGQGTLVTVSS VL: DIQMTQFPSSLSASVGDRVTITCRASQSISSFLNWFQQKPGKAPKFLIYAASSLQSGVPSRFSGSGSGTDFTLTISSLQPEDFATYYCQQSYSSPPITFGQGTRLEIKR
# output 22

# input Repeat for the following molecule: H1H21227N-N297Q: "modified versions of 21227N (H1H21227N-N297Q and H1H21227N-N297D)"; anti-MSR1 antibody "with a N297Q single point mutation" (antibody, V domains shown) VH: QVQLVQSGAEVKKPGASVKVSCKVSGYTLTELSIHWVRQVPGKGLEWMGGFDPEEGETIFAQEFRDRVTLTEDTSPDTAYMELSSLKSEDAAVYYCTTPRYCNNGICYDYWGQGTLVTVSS VL: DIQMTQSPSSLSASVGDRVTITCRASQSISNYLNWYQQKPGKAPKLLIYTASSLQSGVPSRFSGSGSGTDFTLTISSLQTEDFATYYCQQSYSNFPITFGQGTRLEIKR
# output 97

Origin of values: patent US11666658B2
